Molecular target: ENaC (Epithelial Sodium Channel), Mouse kidney M-1 cells (Mus musculus, UniProt Q61180+Q9WU38+Q9WU39)
Construct: Mouse kidney M-1 cells were cultivated in DMEM containing 5% FCS and 5 μM dexamethasone; endogenous in cells
Sequence (Q61180 1-699): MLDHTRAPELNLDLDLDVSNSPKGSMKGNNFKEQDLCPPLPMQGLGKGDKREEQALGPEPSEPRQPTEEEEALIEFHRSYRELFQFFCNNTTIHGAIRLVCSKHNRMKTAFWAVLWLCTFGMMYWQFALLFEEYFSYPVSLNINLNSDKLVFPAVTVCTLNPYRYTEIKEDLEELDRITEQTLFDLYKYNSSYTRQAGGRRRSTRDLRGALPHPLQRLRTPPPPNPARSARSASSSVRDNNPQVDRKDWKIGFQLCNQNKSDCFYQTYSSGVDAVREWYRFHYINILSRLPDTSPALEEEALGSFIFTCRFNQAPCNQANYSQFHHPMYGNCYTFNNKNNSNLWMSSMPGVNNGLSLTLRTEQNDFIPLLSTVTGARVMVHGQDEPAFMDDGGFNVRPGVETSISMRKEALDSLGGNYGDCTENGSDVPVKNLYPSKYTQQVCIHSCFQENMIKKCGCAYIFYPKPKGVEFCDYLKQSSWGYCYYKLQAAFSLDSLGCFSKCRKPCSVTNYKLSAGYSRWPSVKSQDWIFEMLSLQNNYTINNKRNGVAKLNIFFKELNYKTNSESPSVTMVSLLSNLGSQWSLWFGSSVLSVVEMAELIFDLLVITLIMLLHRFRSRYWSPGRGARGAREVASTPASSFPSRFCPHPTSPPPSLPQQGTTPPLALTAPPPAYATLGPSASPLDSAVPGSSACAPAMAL
Sequence (Q9WU38 1-638): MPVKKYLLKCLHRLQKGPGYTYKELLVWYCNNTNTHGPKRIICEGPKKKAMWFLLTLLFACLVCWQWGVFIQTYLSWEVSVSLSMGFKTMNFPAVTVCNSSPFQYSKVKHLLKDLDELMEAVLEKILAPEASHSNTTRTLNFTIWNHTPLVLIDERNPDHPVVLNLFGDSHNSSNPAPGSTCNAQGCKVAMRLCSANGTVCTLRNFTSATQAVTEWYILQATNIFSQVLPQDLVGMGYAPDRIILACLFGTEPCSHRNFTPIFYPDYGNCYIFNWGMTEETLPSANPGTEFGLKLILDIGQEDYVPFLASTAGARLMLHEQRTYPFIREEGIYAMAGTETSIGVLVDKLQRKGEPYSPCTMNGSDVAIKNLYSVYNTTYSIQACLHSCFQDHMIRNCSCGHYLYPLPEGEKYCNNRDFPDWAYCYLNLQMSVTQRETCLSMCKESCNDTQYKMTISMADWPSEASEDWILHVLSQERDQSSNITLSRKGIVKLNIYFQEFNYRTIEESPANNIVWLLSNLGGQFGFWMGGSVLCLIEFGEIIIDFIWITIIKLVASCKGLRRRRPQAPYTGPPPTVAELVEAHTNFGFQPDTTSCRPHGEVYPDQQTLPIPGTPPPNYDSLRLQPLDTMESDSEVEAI
Sequence (Q9WU39 1-655): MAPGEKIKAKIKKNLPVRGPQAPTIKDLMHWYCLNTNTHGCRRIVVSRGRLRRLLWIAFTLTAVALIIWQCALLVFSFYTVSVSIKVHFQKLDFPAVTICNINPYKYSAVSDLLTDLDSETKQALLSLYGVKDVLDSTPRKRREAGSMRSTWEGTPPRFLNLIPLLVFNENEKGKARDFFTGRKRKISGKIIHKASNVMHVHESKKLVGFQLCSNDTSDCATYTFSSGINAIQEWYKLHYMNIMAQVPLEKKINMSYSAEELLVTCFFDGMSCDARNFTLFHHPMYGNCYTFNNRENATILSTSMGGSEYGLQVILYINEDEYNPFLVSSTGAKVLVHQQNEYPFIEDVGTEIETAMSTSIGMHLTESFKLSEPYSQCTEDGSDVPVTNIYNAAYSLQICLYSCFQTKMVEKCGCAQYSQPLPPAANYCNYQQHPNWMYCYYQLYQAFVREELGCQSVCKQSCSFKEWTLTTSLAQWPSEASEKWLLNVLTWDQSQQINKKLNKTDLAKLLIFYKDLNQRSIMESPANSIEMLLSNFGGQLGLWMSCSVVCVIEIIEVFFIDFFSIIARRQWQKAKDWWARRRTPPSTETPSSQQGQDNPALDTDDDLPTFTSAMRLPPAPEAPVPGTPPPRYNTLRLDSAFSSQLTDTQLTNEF
Assay: Ussing Chamber assay: inhibition of amiloride sensitive short circuit current in M-1 cells
Settings: apical application, 37° C.
pIC50: −log10 of the molar value.
Attribute Measured: pIC50

{"columns": ["Smiles Str", "Quantitative Result"],
 "data": [
  ["CCn1c(CNC(=O)c2nc(Cl)c(N)nc2N)[n+](CC(=O)NC2CCNCC2)c2ccc(OC)cc21", 7.77],
  ["CCn1c(CNC(=O)c2nc(Cl)c(N)nc2N)[n+](CC(=O)N2CCCN(C(=O)OC(C)(C)C)CC2)c2ccc(OC)cc21", 7.55]
]}

A = CCn1c(CNC(=O)c2nc(Cl)c(N)nc2N)[n+](CC(=O)N2CCN(C)CC2)c2ccc(OC)cc21
B = CC[n+]1c(CNC(=O)c2nc(Cl)c(N)nc2N)n(CCOCCOCCN)c2cc(OC)ccc21
Endpoint returns the identifier whose pIC50 is numerically larger, either A or B . I would appreciate it if you answered with the label of your choice. B

Data provenance: patent US9981954B2
